Test system: HCV replicon cells
Assay: HCV replicon FRET / luciferase assay (96-well plates)
Type: cell-based
Conditions: Hepatitis C virus, Table 1a; HCV replicon; read-out: EC50
pEC50: −log10 of the molar value.
measurement_kind: pEC50

Consider the reported pEC50 for these compounds:
CNC(=O)c1c(-c2ccc(F)cc2)oc2ccc(-c3cccc(C(=O)Nc4n[nH]cc4C(N)=O)c3)cc12 : < 5.00
CNC(=O)c1c(-c2ccc(F)cc2)oc2ccc(-c3cccc(C(=O)Nc4cccc(O)c4)c3)cc12 : 5.00 to 6.00
CNC(=O)c1c(-c2ccc(F)cc2)oc2ccc(-c3cccc(S(=O)(=O)NC4CC4)c3)cc12 : < 5.00

Q: Answer with the recorded pEC50 of CNC(=O)c1c(-c2ccc(F)cc2)oc2ccc(-c3cc(C(=O)NCC(C)C)ccc3OC(C)C)cc12 only.
A: 6.00 to 6.60

----------
# EC50 per entry
Tested on: HCV replicon cells
Assay: HCV replicon FRET / luciferase assay (96-well plates)
Format: cell-based
Details: Hepatitis C virus, Table 1b; HCV replicon; read-out: EC50

Illustrative cases are given below, each with its answer.
CNC(=O)c1c(-c2ccc(F)cc2)oc2ccc(-c3cc(C(=O)NC4(c5nnc(-c6cccc(OC)c6)[nH]5)CC4)ccc3C)cc12 : < 250 nM
CNC(=O)c1c(-c2ccc(F)cc2)oc2ccc(-c3ccc(-c4cccc(-c5ccccc5)c4)c(C(=O)NCC(C)C)c3)cc12 : 250 to 1000 nM
CNC(=O)c1c(-c2ccc(F)cc2)oc2ccc(-c3cc(C(=O)NC4(c5nnc(C(N)=O)[nH]5)CC4)ccc3C)cc12 : 250 to 1000 nM
CCC(NC(=O)c1ccc(F)c(-c2cc3c(C(=O)NC)c(-c4ccc(F)cc4)oc3cc2N)c1)c1ccccc1 (stereo not shown) : < 250 nM
CNC(=O)c1c(-c2ccc(F)cc2)oc2ccc(-c3cc(C(=O)NC4(c5ccccc5)CC4)ccc3OCCN(C)C)cc12 : < 250 nM
CNC(=O)c1c(-c2ccc(F)cc2)oc2ccc(-c3cc(OCCn4ccnc4C)cc(C(=O)NCC(C)C)c3)cc12 : 1000 to 10000 nM

Q: Please supply the value of reported EC50 for the item CNC(=O)c1c(-c2ccc(F)cc2)oc2ccc(-c3ccc(O)c(C(=O)NCC(C)C)c3)cc12
A: > 10000 nM

----------
Target: HCV NS5B RdRp genotype 1b (Hepatitis C virus genotype 1b, UniProt Q9WMX2)
Construct: The protein was expressed with an 18 amino acid C-terminal truncation to enhance the solubility; made in house; host or cells: E. coli BL21(DE3), pET21a vector
Sequence (Q9WMX2 2420-2992): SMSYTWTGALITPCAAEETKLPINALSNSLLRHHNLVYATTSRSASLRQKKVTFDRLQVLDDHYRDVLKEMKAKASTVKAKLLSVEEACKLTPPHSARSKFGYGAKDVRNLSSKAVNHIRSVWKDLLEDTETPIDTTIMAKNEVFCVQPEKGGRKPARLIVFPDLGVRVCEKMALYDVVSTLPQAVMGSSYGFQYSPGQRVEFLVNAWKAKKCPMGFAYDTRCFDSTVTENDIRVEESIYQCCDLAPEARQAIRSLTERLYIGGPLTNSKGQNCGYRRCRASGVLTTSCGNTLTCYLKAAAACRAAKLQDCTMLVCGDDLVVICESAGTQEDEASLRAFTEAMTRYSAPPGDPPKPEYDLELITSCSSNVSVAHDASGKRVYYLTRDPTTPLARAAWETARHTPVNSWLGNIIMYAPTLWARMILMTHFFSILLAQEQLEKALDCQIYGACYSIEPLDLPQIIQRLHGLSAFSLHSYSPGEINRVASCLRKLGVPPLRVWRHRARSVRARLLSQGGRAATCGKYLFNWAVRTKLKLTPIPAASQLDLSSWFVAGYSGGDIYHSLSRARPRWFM
Experiment: Standard HCV NS5B RdRp enzyme assay
Type: biochemical
Settings: Table 1a; HCV NS5B RdRp genotype 1b; read-out: IC50
measurement_kind: IC50

The cases that follow already have their IC50 on record.
CNC(=O)c1c(-c2ccc(F)cc2)oc2ccc(-c3cccc(C(=O)Nc4ccccc4Cl)c3)cc12 : 1000 to 10000 nM
CNC(=O)c1c(-c2ccc(F)cc2)oc2ccc(-c3cccc(C(=O)NS(=O)(=O)c4ccccc4)c3)cc12 : < 250 nM
CNC(=O)c1c(-c2ccc(F)cc2)oc2ccc(-c3ccc(Cl)c(C(=O)NCC(C)C)c3)cc12 : 1000 to 10000 nM
CNC(=O)c1c(-c2ccc(F)cc2)oc2ccc(-c3cc(OC)ncc3F)cc12 : > 10000 nM
CNC(=O)c1c(-c2ccc(F)cc2)oc2ccc(-c3cccc(C(=O)NC4(c5ccccn5)CC4)c3)cc12 : < 250 nM
CNC(=O)c1c(-c2ccc(F)cc2)oc2ccc(-c3cc(CO)ccc3Cl)cc12 : > 10000 nM
CNC(=O)c1c(-c2ccc(F)cc2)oc2ccc(-c3cccc(C(=O)Nc4ccccc4O)c3)cc12 : < 250 nM
CNC(=O)c1c(-c2ccc(F)cc2)oc2ccc(-c3cccc(C(=O)NCc4ccccc4F)c3)cc12 : 250 to 1000 nM

Q: Retrieve IC50 measured for CNC(=O)c1c(-c2ccc(F)cc2)oc2ccc(-c3ccc(C(=O)OC(C)(C)C)cc3)cc12 and print it.
A: > 10000 nM

Q: Retrieve IC50 measured for CNC(=O)c1c(-c2ccc(F)cc2)oc2ccc(-c3cccc(C(=O)N(C)CC(C)C)c3)cc12 and print it.
A: < 250 nM

Q: Report measured IC50; entry is CNC(=O)c1c(-c2ccc(F)cc2)oc2ccc(-c3cccc(C(=O)NC(C)(C)c4ccc(F)cc4)c3)cc12
A: < 250 nM

Q: Tell me its IC50 given CNC(=O)c1c(-c2ccc(F)cc2)oc2ccc(-c3cccc(C(=O)NCC4CCOCC4)c3)cc12 as the entry.
A: < 250 nM

Q: // Input: CNC(=O)c1c(-c2ccc(F)cc2)oc2ccc(-c3cccc(C(=O)NCc4cccc(F)c4)c3)cc12 . Output its IC50 only.
A: < 250 nM

Q: Recall and state the measured IC50 for CNC(=O)c1c(-c2ccc(F)cc2)oc2ccc(-c3cccc(C(=O)N4CCCC4c4ccccn4)c3)cc12 (stereo not drawn) .
A: 250 to 1000 nM
